Kindly state growth inhibition for each of the entries shown.
Experiment: NCI Yeast Anticancer Drug Screen. Data for the mec2-1 strain (AID 157)
Settings: S. cerevisiae mec2-1 strain, at 50.0 µM, active compounds read high
This is part of a sample that, as a whole, favours compounds with a hit. Of some 79,000 tested, about 15% had one in any assay. Active and inactive are the calls of the source. Cut-off read from the data, not from the text of the source: active = growth inhibition above about 70%; inactive = the rest.

Completed entries (count: 2):
>>> df
                                   compound  experimental_value
0  C/C=C1\CC(C)(CC)C(C#N)(C#N)C(N)=C1C#N (stereo not drawn)    10.5% (inactive)
1  COC1(OC)C(C#N)(C#N)C2(C(=O)Nc3ccccc32)C1(OC)OC (stereo not drawn)    12.2% (inactive)

Now for another entry.
IN: Please give the documented growth inhibition of C=C(C)C1CC2=C(O1)C(=O)c1ccccc1C2=O (stereo not drawn)
OUT: 82.5% (active)

* * *

Experiment: NCI Yeast Anticancer Drug Screen. Data for the mlh1 rad18 strain (AID 175)
Settings: S. cerevisiae mlh1 rad18 strain growth inhibition; at 5.0 µM (retest, dose inferred, filed as 0.5)
Procedure: Growth inhibition of yeast strains with defined genetic alterations is measured as a screen for potential anti-cancer activity. Selected strains with alterations in DNA damage repair or cell cycle control were exposed to compounds and growth inhibition was measured relative to vehicle treated controls. The strain used in this assay is mlh1 rad18
This is part of a sample that, as a whole, favours compounds with a hit. Of some 79,000 tested, about 15% had one in any assay. The source made the active and inactive calls. Cut-off read from the data, not from the text of the source: active = growth inhibition above about 70%; inactive = the rest.
Pick one: label 1 (active), label 0 (inactive)

Worked set:
molecule	assigned.category
CC(=O)Nc1cc(Cl)c2c(c1)C(=O)c1ccccc1-2	label 0
C[C@@H]1CC=C[C@@H](NC(=O)OCc2ccccc2)[C@H]1C=O	label 0
COc1ccc(NNC(=O)c2ccccc2)cc1	label 0
O=C(CCCN1CCc2[nH]c3cc(F)ccc3c2C1)c1ccc(F)cc1	label 0
CC1CCC(NCCOC(=O)c2ccc([N+](=O)[O-])cc2)CC1 (stereo unspecified)	label 0

IN: In this assay, the call recorded for `O=C1c2ccccc2C(=O)c2c(Nc3cc4c5c(ccc6c7ccc8c9c(cc(Nc%10cccc%11c%10C(=O)c%10ccccc%10C%11=O)c(c3c56)c97)-c3ccccc3C8=O)C(=O)c3ccccc3-4)cccc21` was what?
OUT: label 0

IN: State the result this test recorded for `O=C1c2cccc3cc4ccccc4c(c23)C(=O)N1CCCNCCNCCCN1C(=O)c2cccc3cc4ccccc4c(c23)C1=O` .
OUT: label 1

IN: Just curious, what result did `CCOC(=O)C1=C(Nc2ccc(Br)cc2)OC/C1=N\NC(=O)c1ccccc1O` get here?
OUT: label 0

IN: Given `Cc1ccc(NC(=O)CCc2nnc(N)n2N)cc1` , state the outcome it received in this test.
OUT: label 0

IN: Tell me the assay call for `CC1CCN(CC(=O)N2c3ccccc3Sc3cc4ccccc4cc32)CC1` please.
OUT: label 0

IN: Please state the recorded outcome for this molecule: `CC1CCN(SSc2nc3ccccc3s2)CC1`
OUT: label 0

* * *

Could you please report measured growth inhibition for the items listed next?
Test: NCI Yeast Anticancer Drug Screen. Data for the bub3 strain (AID 167)
Conditions: S. cerevisiae bub3 mutant strain, at 50.0 µM, active compounds read high
Description: Growth inhibition of yeast strains with defined genetic alterations is measured as a screen for potential anti-cancer activity. Selected strains with alterations in DNA damage repair or cell cycle control were exposed to compounds and growth inhibition was measured relative to vehicle treated controls. The strain used in this assay is bub3
About 79,000 compounds went through this panel and 15% of them were active in at least one assay; those are over-represented in the sample as a whole. Activity calls are given as the source filed them. Rule as the data show it: active = growth inhibition above about 70%; inactive = the rest.

The cases that follow already have their growth inhibition on record.
                           structure_smiles   observation_type  experimental_value
0     C/C(=N\NC(=S)N1CCCC1)c1nc2ncccc2[nH]1  growth inhibition        87% (active)
1              C(=C\c1cnnc2ccccc12)/c1ccco1  growth inhibition    18.8% (inactive)
2  COc1cc2cc[n+]3c4ccc([N+](=O)[O-])cc4ccc3c2cc1OC  growth inhibition    57.7% (inactive)

Let us examine a further case.
IN: Let me know recorded growth inhibition for `C/C=C/C=C/C(=O)Nc1ccc([N+](=O)[O-])cc1` , thanks.
OUT: 36.4% (inactive)

* * *

Test: NCI Yeast Anticancer Drug Screen. Data for the sgs1 mgt1 strain (AID 161);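 note: 0% = growth of cultures given vehicle only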
Details: S. cerevisiae sgs1 mgt1 strain, at 50.0 µM
Compounds without any hit were thinned out: in the full panel of roughly 79,000, 15% have a hit. Calls of active or inactive are those of the source. Cut-off read from the data, not from the text of the source: active = growth inhibition above about 70%; inactive = the rest.
Your response should consist of one outcome taken from active, inactive

compound	assigned.category
ClC/C=C/c1ccccc1	inactive
CCOc1ccc2nc3cc(Cl)ccc3[n+](C)c2c1	active
CCCCCCCCCCCCNCc1ccc2c(c1)OCO2	inactive
N#CCCN(CCC#N)Cc1c(O)c(O)c(CN(CCC#N)CCC#N)c2ccccc12	inactive
O=C1NC(=S)S/C1=C\c1cc(Cl)ccc1O	inactive
CCOCCNc1ncnc2c1cnn2C	inactive

IN: Kindly provide the recorded test outcome for the following compound: `[N-]=[N+]=NC1=CC(=O)c2cccc3cccc1c23`
OUT: active

IN: So what was the verdict on `CC(=O)C(=C(I)I)c1ccccc1` in this test?
OUT: active

IN: Please indicate how the test categorized CC(C)CCCC(C)C1CCC2C3CC=C4OC(=O)CCC4(C)C3CCC12C (stereo not drawn) .
OUT: active

IN: Write down the call the test reported for this compound. Item: Cc1c(N=Nc2ccc(Cl)cc2)c(-c2ccccc2)n(C2OC(CO)C(O)C(O)C2O)c(=S)c1C#N (stereo not drawn)
OUT: active

IN: Name the outcome recorded for `COc1ccccc1C(=O)[O][Sn]([c]1ccccc1)([c]1ccccc1)[c]1ccccc1` in the assay.
OUT: active

* * *

Assay: NCI Yeast Anticancer Drug Screen. Data for the cln2 rad14 strain (AID 165);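 note: 0% = growth equal to vehicle treated cultures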
Conditions: S. cerevisiae cln2 rad14 strain, at 50.0 µM
This is part of a sample that, as a whole, favours compounds with a hit. Of some 79,000 tested, about 15% had one in any assay. Calls of active or inactive are those of the source. Rule as the data show it: active = growth inhibition above about 70%; inactive = the rest.
Returns: one label drawn from yes (active), no (inactive)

>>> print(df.to_string())
              compound  assigned_category
0  CC(CO)(CO)Cc1ccccc1                yes

IN: Test call, this compound: `CCCCCCCCCCCCCCCC(=O)N1CCOCC1`
OUT: no

IN: Returns: the outcome recorded for `O=C(CC(=O)c1ccccc1)CC(=O)c1ccccc1Br` in this assay.
OUT: yes

IN: Assay outcome for `CCCCCCCCCCCCCCNCCN` : what was it?
OUT: yes

IN: For C/C(=N/NC(N)=O)C1CC(CCC2([N+](=O)[O-])CCC(C)(O)C(/C(C)=N\NC(N)=O)C2)([N+](=O)[O-])CCC1(C)O (stereo unspecified) , which call appears in the assay record?
OUT: no

IN: Hello, I am checking results. What call was entered for `Cc1ccccc1C(O)(c1ccccc1C)C1(O)CCN(C)CC1` ?
OUT: yes

* * *

Assay: NCI Yeast Anticancer Drug Screen. Data for the bub3 strain (AID 167)
Settings: S. cerevisiae bub3 mutant strain, at 5.0 µM (retest, dose inferred, filed as 0.5), active compounds read high
About 79,000 compounds went through this panel and 15% of them were active in at least one assay; those are over-represented in the sample as a whole.
observation.type: growth inhibition (%)
Numbers only, in %.

Example results:
>>> df
                                   compound   observation_type  measurement_units  experimental_value
0               Clc1ccc(C2=CCCc3ccccc32)cc1  growth inhibition                  %                   6
1  CC1CCC(C)(C)c2cc([N+](=O)[O-])cc([N+](=O)[O-])c21 (stereo not given)  growth inhibition                  %                  18
2    CC(C)[C@@H]1CC[C@@H](C)C[C@H]1OC(=O)NN  growth inhibition                  %                   6

For each entry beneath this line, provide reported growth inhibition.
1. CN(C)CCN(C)N=Nc1c(-c2cccs2)n[nH]c1C(F)(F)F
2. Cc1ccc(-[n+]2cc([O-])on2)cc1
3. CCCCCCOC(=O)CCC(=O)OCCCCCC
4. CC(=O)Oc1c(-c2ccccc2)cc([N+](=O)[O-])cc1[N+](=O)[O-]
5. CCc1[nH]c2ccccc2c1C(c1c(CC)[nH]c2ccccc12)C1CCCCC1=O (stereo not given)
6. CC(C)(C)NCc1cc(C(C)(C)C)cc(-c2ccc(Cl)cc2)c1O
7. CN(C)CCCN=c1c2ccccc2n(O)c2ccccc12

OUT:
[99, 10, 16, 24, 0, 12, -4]

All values here come from PubChem BioAssay (NCI).
